# testSystem: 14-3-3σ (Homo sapiens, UniProt P31947)
# Sequence (P31947 whole entry): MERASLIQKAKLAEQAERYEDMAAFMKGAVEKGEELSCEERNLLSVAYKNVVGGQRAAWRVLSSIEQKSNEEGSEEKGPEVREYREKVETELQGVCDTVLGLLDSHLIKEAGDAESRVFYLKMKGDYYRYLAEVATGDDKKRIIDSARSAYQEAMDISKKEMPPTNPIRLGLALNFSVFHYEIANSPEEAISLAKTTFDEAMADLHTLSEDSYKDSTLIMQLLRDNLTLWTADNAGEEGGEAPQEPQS
# testSummary: Intact mass spectrometry assay, apo (no peptide)
# Format: binding
# Set-up: full-length for mass spectrometry and fluorescence anisotropy assays; made in house; host or cells: E. coli Rosetta 2(DE3)pLysS, pPROEX HTb vector
# conditionSet: 1 μM compound, 100 nM 14-3-3σ, 8 h
Response field label: string, one of fulfilled (% bound, APO, 8h strictly below 2%) or not fulfilled.

O=C(CCl)NCC1CCN(S(=O)(=O)C2CC3(C2)CC(F)(F)C3)CC1 [Compound 35] ... fulfilled
CC1(CNC(=O)CCl)CCN(S(=O)(=O)c2ccc(Br)c(F)c2)CC1 [Compound 46] ... fulfilled
O=C(CCl)N1CC2CC1CN2S(=O)(=O)c1ccc(Br)c(F)c1 (centres unmarked) [Compound 58] ... not fulfilled
O=C(CCl)NCC1CCN(S(=O)(=O)c2ccccc2)CC1 [Compound 10] ... not fulfilled
COc1ccc(S(=O)(=O)N2CCC(CNC(=O)CCl)CC2)cc1F [Compound 33] ... fulfilled

In: Would you kindly verify if % bound, APO, 8h of O=C(CCl)NCC1CCN(S(=O)(=O)Cc2ccccc2)CC1 [Compound 6] is strictly less than 2%?
Out: fulfilled

In: Now consider O=C(CCl)N1CC2(CCN(S(=O)(=O)c3ccc(Br)c(F)c3)CC2)C1 [Compound 49] .
Out: not fulfilled

In: Now consider O=C(CCl)NCC1CCN(S(=O)(=O)c2ccc(Br)cc2F)CC1 [Compound 36] .
Out: fulfilled

In: Now consider O=C(CCl)NCC1CCN(S(=O)(=O)c2cccc(F)c2)CC1 [Compound 16] .
Out: fulfilled

In: Now consider O=C(CCl)NCC1CCN(S(=O)(=O)Cc2ccc(F)cc2)CC1 [Compound 7] .
Out: fulfilled

In: Now consider O=C(CCl)NCC1CCN(S(=O)(=O)c2cc(F)c(Br)c(F)c2)CC1 [Compound 40] .
Out: fulfilled

In: Now consider O=C(CCl)N1CC2CCC1CC2NS(=O)(=O)c1ccc(Br)c(F)c1 (centres unmarked) [Compound 61] .
Out: not fulfilled

In: Now consider O=C(CCl)NCC1CCN(S(=O)(=O)C2CCC3(CC2)CC3(F)F)CC1 (centres unmarked) [Compound 34] .
Out: fulfilled

In: Now consider O=C(CCl)NCC1CCN(S(=O)(=O)c2cc(F)c(Br)cc2F)CC1 [Compound 39] .
Out: fulfilled

In: Now consider O=C(CCl)NCC1CCN(S(=O)(=O)c2ccc(F)cc2)CC1 [Compound 11] .
Out: fulfilled

In: Now consider Cc1ccc(S(=O)(=O)N2CCC(CNC(=O)CCl)CC2)cc1 [Compound 24] .
Out: fulfilled

In: Now consider O=C(CCl)NCC1CCN(S(=O)(=O)c2cccc(C(F)(F)F)c2)CC1 [Compound 17] .
Out: fulfilled

----------
Listed below: EC50 values for each entry.
# testSystem: 14-3-3σ/C-RAF259 (Homo sapiens, UniProt P31947)
# Sequence (P31947 whole entry, other chains not shown): as the sequence (P31947 whole entry) above
# testSummary: Fluorescence anisotropy (FA) compound titration
# Format: binding
# conditionSet: 10 nM C-RAF259-FAM 10-mer, 5 μΜ 14-3-3σ, overnight; read-out: Compound titrations EC50 value C-RAF259
Please reply with the bare figure in µM and do not write the unit itself.

O=C(CCl)N1CC2(CCN(S(=O)(=O)c3ccc(Br)c(F)c3)CC2(F)F)C1 ... 94
O=C(CCl)NCC1CCN(S(=O)(=O)c2ccc(I)cc2)CC1 ... 1
O=C(CCl)N1CC2(CC(NS(=O)(=O)c3ccc(Br)c(F)c3)CO2)C1 (stereo not drawn) ... 14
COc1ccc(S(=O)(=O)N2CCC(CNC(=O)CCl)CC2)cc1 ... 57
O=C(CCl)N1CC2(CC(NS(=O)(=O)c3ccc(Br)c(F)c3)C2)C1 ... 15
O=C(CCl)NCC1CCN(S(=O)(=O)c2cc(F)c(Br)cc2F)CC1 ... 17

In: Would you kindly share the measured EC50 for O=C(CCl)NCC1CCN(S(=O)(=O)c2ccc(Br)cc2F)CC1 ?
Out: 25

In: Now consider O=C(CCl)NCC1CCN(S(=O)(=O)c2ccc(F)c(F)c2)CC1 .
Out: 88

In: Now consider Cc1ccc(S(=O)(=O)N2CCC(CNC(=O)CCl)CC2)cc1 .
Out: 14

In: Now consider O=C(CCl)NCC1CCN(S(=O)(=O)c2ccc(C(F)(F)F)c(F)c2)CC1 .
Out: 4

In: Now consider O=C(CCl)NCC1CCN(S(=O)(=O)c2ccccc2)CC1 .
Out: 66
